TARGET_DESC: OCT2 (Homo sapiens, UniProt O15244)
Sequence (O15244 whole entry): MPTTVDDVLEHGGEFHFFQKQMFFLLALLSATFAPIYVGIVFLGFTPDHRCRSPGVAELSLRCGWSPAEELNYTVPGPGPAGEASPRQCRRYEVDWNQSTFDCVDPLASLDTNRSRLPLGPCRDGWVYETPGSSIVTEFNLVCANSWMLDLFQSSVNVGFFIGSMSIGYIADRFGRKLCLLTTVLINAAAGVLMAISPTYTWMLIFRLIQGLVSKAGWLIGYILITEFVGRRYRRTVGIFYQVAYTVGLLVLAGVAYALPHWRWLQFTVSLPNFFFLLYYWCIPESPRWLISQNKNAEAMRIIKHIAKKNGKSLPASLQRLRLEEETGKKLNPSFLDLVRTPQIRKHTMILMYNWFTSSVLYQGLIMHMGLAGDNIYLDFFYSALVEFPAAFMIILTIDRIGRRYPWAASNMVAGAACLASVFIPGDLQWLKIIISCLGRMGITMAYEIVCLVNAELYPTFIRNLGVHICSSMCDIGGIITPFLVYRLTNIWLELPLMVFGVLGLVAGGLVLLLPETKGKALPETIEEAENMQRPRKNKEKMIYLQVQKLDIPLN
EXPERIMENT: Inhibition of OCT2-mediated oxaliplatin uptake in transfected MDCK-II cells (protein-free HBSS)
CONDITION_DETAILS: human, MDCK-II cells transfected with human OCT2, probe oxaliplatin 10 μM
Source text: Fully confluent MDCK cell monolayers were transfected with either cDNA plasmids encoding the human transporter to be tested or a GFP control. […] The cells were then washed with ice-cold PBS and lysed with 50:50 acetonitrile:H2O. Intracellular content of the substrate was quantified by LC/MS/MS or a MicroBeta radiometric plate reader.
OBSERVATION_TYPE: inhibition at 30 min, 50 μM (%)

                              smiles_string             observation_type  readout_unit  value_measured
0  C#Cc1cccc(Nc2ncnc3cc(OCCOC)c(OCCOC)cc23)c1  inhibition at 30 min, 50 μM             %             106
1  C=C1C[C@@H]2[C@H](CC[C@]3(C)C(=O)CC[C@@H]23)[C@@]2(C)C=CC(=O)C=C12  inhibition at 30 min, 50 μM             %             102
2  C[C@@H]1CCO[C@H]2Cn3cc(C(=O)NCc4ccc(F)cc4F)c(=O)c(O)c3C(=O)N12  inhibition at 30 min, 50 μM             %              97
3  CC(C)[N+](C)(CCOC(=O)C1c2ccccc2Oc2ccccc21)C(C)C  inhibition at 30 min, 50 μM             %             102
